# log10 EC50 values compiled below
Target: full-length WT STING (Homo sapiens, UniProt Q86WV6, H232R)
Construct: AviTag (after gg linker) (C); HRV3C cleavage site (after gs linker) (C); HIS8 (C); made in house; host or cells: Trichoplusia ni (Hi-Five) insect cells infected with baculovirus (virus generated and amplified in Sf21 cells); used as a washed membrane preparation
Sequence (Q86WV6 with tags, fused parts or gaps H232R): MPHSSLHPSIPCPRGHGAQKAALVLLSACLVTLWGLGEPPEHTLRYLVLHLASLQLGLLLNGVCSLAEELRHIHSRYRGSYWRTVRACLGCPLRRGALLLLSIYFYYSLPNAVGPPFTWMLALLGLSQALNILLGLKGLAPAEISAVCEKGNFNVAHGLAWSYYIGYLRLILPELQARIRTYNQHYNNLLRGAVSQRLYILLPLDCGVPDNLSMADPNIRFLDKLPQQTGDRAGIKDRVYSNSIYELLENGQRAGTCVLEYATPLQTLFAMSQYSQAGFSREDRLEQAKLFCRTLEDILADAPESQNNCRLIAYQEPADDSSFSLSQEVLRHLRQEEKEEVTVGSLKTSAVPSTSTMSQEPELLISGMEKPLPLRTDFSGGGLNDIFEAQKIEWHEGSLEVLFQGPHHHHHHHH
Assay: 3H-cGAMP filtration binding assay (WT STING)
Details: competition with tritiated cGAMP, WT STING membrane
The base-10 logarithm of EC50, taken with EC50 in nM, is what appears here.

Worked cases, answers included:
COMPOUND	READOUT VALUE
COc1cc2sc(C(=O)CCC(=O)O)cc2cc1CCCOc1cc2nc(C(=O)CCC(=O)O)sc2cc1OC	2.58
COc1cc2sc(C(=O)C[C@H](C)C(=O)O)cc2cc1OCCCOc1ccc2cc(C(=O)CCC(=O)O)sc2c1	2.18
COc1cc2sc(C(=O)CCC(=O)O)cc2cc1OCCOc1c(OC)cc2sc(C(=O)C[C@H](C)C(=O)O)cc2c1F	0.60
COc1cc2sc(C(=O)CCC(=O)O)cc2cc1OCCOc1c(OC)cc2sc(C(=O)CCC(=O)O)cc2c1F	1.00

For the compound COc1cc2sc(C(=O)C[C@H](C)C(=O)O)cc2cc1OCCCOc1cc2sc(C(=O)C[C@H](C)C(=O)O)cc2nc1OC , what log10 EC50 is on record?
2.07

Now this one: COc1cc2sc(C(=O)C[C@H](C)C(=O)O)cc2cc1OCCCOc1c(OC)cc2sc(CC[C@H](C)C(=O)O)cc2c1F
1.26

# iterate: COc1cc2sc(C(=O)C[C@H](C)C(=O)O)cc2nc1OCCCOc1c(OC)cc2sc(C(=O)C[C@H](C)C(=O)O)cc2c1F (racemic)
0.00

###

Molecular target: full-length WT STING (Homo sapiens, UniProt Q86WV6, H232R)
Construct: AviTag (after gg linker) (C); HRV3C cleavage site (after gs linker) (C); HIS8 (C); made in house; host or cells: Trichoplusia ni (Hi-Five) insect cells infected with baculovirus (virus generated and amplified in Sf21 cells); used as a washed membrane preparation
Test: 3H-cGAMP filtration binding assay (WT STING)
Details: at 20,000 nM compound
READOUT NAME: inhibition at 20 µM (%)
Give your result in % as a bare value.

Some entries whose results are on file:
COc1cc2sc(C(=O)C[C@H](C)C(=O)O)cc2cc1OCCCCCCOc1c(OC)cc2sc(C(=O)C[C@H](C)C(=O)O)cc2c1F 50
COc1cc2sc(C(=O)C[C@H](C)C(=O)O)cc2c(F)c1OCCCCCOc1c(OC)cc2sc(C(=O)[C@@H]3CC[C@H]3C(=O)O)cc2c1F 43

Please examine the following record next.
// lookup inhibition at 20 µM | system=full-length WT STING (Homo sapiens, UniProt Q86WV6, H232R) | key= COC(=O)[C@@H](C)CC(=O)c1cc2cc(OCCCOc3cc4sc(C(=O)C[C@H](C)C(=O)OC)cc4cc3OC)c(OC)cc2s1
43

###

Biological target: full-length HAQ STING (Homo sapiens, UniProt Q86WV6, G230A/H232R/R293Q/R71H)
Construct: AviTag (after GG linker) (C); HRV3C cleavage site (after GS linker) (C); HIS8 (C); made in house; host or cells: Trichoplusia ni (Hi-Five) insect cells infected with baculovirus (virus generated and amplified in Sf21 cells); used as a washed membrane preparation
Sequence (Q86WV6 with tags, fused parts or gaps R71H/G230A/H232R/R293Q): as the sequence (Q86WV6 with tags, fused parts or gaps H232R) above, with R71H, G230A, R293Q counted along it
Assay: 3H-cGAMP filtration binding assay (HAQ STING)
Conditions: competition with tritiated cGAMP, HAQ STING membrane
Let's look at some compounds and their measured EC50.
Form entry: value (nM) — number only.

Consider the following illustrative entries.
COc1cc2cc(C(=O)C[C@H](C)C(=O)O)sc2cc1OCCCOc1c(OC)cc2sc(C(=O)[C@@H]3C[C@H]3C(=O)O)cc2c1F 58
COc1cc2sc(C(=O)C[C@H](C)C(=O)O)cc2c(Cl)c1OCCCOc1cc2cc(C(=O)C[C@H](C)C(=O)O)sc2cc1O 1

As a next step, examine the compound that follows.
// EC50 lookup, key: COc1cc2cc(C(=O)C[C@H](C)C(=O)O)sc2cc1OCCCOc1c(OC)cc2sc(C(=O)CCC(=O)O)cc2c1F
1

###

Biological target: full-length HAQ STING (Homo sapiens, UniProt Q86WV6, G230A/H232R/R293Q/R71H)
Construct: AviTag (after GG linker) (C); HRV3C cleavage site (after GS linker) (C); HIS8 (C); made in house; host or cells: Trichoplusia ni (Hi-Five) insect cells infected with baculovirus (virus generated and amplified in Sf21 cells); used as a washed membrane preparation
Test: 3H-cGAMP filtration binding assay (HAQ STING)
Conditions: competition with tritiated cGAMP, HAQ STING membrane
Excerpt: The ability of compounds to bind STING is quantified by the ability to compete with tritiated cGAMP ligand for human STING receptor membrane using a radioactive filter-binding assay. […] The ability of compounds to bind STING is quantified by their ability to compete with tritiated cGAMP ligand for human STING receptor membrane using a radioactive filter-binding assay. […]
A collection of compounds and their measured EC50
Kindly answer with a numeric value in nM, unit omitted.

COc1cc2sc(C(=O)C[C@H](C)C(=O)O)cc2cc1OCCCOc1c(OC)cc2sc(C(=O)CC(C)(C)C(=O)O)cc2c1F 3
COc1cc2cc(C(=O)C[C@H](C)C(=O)O)sc2cc1OCCCOc1ccc2sc(C(=O)CCC(=O)O)cc2c1 133
COc1cc2cc(C(=O)C[C@H](C)C(=O)O)sc2cc1OCCCOc1cc2sc(C(=O)C[C@H](C)C(=O)O)cc2cc1OC 14

For the compound COc1cc2sc(C(=O)C[C@H](C)C(=O)O)cc2cc1OCCCOc1cc2sc(C(=O)C[C@H](C)C(=O)O)cc2nc1OC , what EC50 is on record?
8

Lookup COc1cc2sc(CC[C@H](C)C(=O)O)cc2cc1OCCCOc1c(OC)cc2sc(C(=O)C[C@H](C)C(=O)O)cc2c1Cl
143

Next up: COc1cc2cc(C(=O)CCC(=O)O)sc2cc1OCCCc1cc2cc(C(=O)CCC(=O)O)sc2cc1C
3500

Also, COc1cc2sc(CC[C@H](C)C(=O)O)cc2c(F)c1OCCCOc1cc2cc(C(=O)C[C@H](C)C(=O)O)sc2cc1O please.
5

Do the same for COc1cc2sc(C(=O)C[C@H](C)C(=O)O)cc2cc1OCCCOc1c(OC)cc2sc(C(=O)C[C@H](C)C(=O)O)cc2c1F please
1

###

Molecular target: full-length HAQ STING (Homo sapiens, UniProt Q86WV6, G230A/H232R/R293Q/R71H)
Construct: AviTag (after GG linker) (C); HRV3C cleavage site (after GS linker) (C); HIS8 (C); made in house; host or cells: Trichoplusia ni (Hi-Five) insect cells infected with baculovirus (virus generated and amplified in Sf21 cells); used as a washed membrane preparation
Test: 3H-cGAMP filtration binding assay (HAQ STING)
Conditions: competition with tritiated cGAMP, HAQ STING membrane
EC50 strictly under 20 nM means YES; at 20 nM or over means NO.

Some solved cases for reference:
COMPOUND	TARGET SYSTEM	QUALITATIVE LABEL
COc1cc2sc(C(=O)CCC(=O)O)cc2nc1OCCOc1c(OC)cc2sc(C(=O)C[C@H](C)C(=O)O)cc2c1F [Example 83]	full-length HAQ STING (Homo sapiens, UniProt Q86WV6, G230A/H232R/R293Q/R71H)	YES
COc1cc2sc(C(=O)C[C@H](C)C(=O)O)cc2c(F)c1OCCCCOc1c(OC)cc2sc(C(=O)C[C@H](C)C(=O)O)cc2c1Cl [Example 130]	full-length HAQ STING (Homo sapiens, UniProt Q86WV6, G230A/H232R/R293Q/R71H)	YES
COc1cc2sc(C(=O)C[C@H](C)C(=O)O)cc2cc1OCCCOc1cc2cc(C(=O)[C@H]3C[C@@H]3C(=O)O)sc2cc1OC (racemic) [Example 68]	full-length HAQ STING (Homo sapiens, UniProt Q86WV6, G230A/H232R/R293Q/R71H)	NO
COc1cc2sc(CC[C@H](C)C(=O)O)cc2c(F)c1OCCCOc1c(OC)cc2sc(C(=O)C[C@H](C)C(=O)O)cc2c1F [Example 101]	full-length HAQ STING (Homo sapiens, UniProt Q86WV6, G230A/H232R/R293Q/R71H)	YES
COc1cc2sc(C(=O)C[C@H](C)C(=O)O)cc2cc1OCCOc1ccc2sc(C(=O)CCC(=O)O)cc2c1 [Example 54]	full-length HAQ STING (Homo sapiens, UniProt Q86WV6, G230A/H232R/R293Q/R71H)	NO
COc1cc2sc(C(=O)C[C@H](C)C(=O)O)cc2cc1OCC(C)COc1cc2cc(C(=O)C[C@H](C)C(=O)O)sc2cc1OC [Example 160]	full-length HAQ STING (Homo sapiens, UniProt Q86WV6, G230A/H232R/R293Q/R71H)	YES
COc1cc2sc(C(=O)C[C@H](C)C(=O)O)cc2cc1OCCCCCOc1cc2cc(C(=O)C[C@H](C)C(=O)O)sc2cc1OC [Example 102]	full-length HAQ STING (Homo sapiens, UniProt Q86WV6, G230A/H232R/R293Q/R71H)	YES
COc1cc2sc(C(=O)CCC#N)cc2cc1CCCc1cc2cc(C(=O)CCC#N)sc2cc1OC [Example 175]	full-length HAQ STING (Homo sapiens, UniProt Q86WV6, G230A/H232R/R293Q/R71H)	NO
COc1cc2sc(C(=O)C[C@@H](C)C(=O)O)cc2cc1CCCOc1c(OC)cc2sc(C(=O)C[C@@H](C)C(=O)O)cc2c1F [Example 108]	full-length HAQ STING (Homo sapiens, UniProt Q86WV6, G230A/H232R/R293Q/R71H)	NO
COc1cc2sc(C(=O)C[C@H](C)C(=O)O)cc2cc1OCCCOc1ccc2sc(C(=O)CCC(=O)O)cc2c1 [Example 55]	full-length HAQ STING (Homo sapiens, UniProt Q86WV6, G230A/H232R/R293Q/R71H)	YES

Is 20 nM strictly greater than the compound's reported EC50? compound: COc1cc2sc(C(=O)CCC(=O)O)cc2cc1OCCc1nc2cc(C(=O)CCC(=O)O)sc2cc1OC [Example 7]
YES

Queued: COc1cc2sc(C(=O)C[C@H](C)C(=O)O)cc2nc1OCCOc1c(OC)cc2sc(C(=O)C[C@H](C)C(=O)O)cc2c1F (racemic) [Example 19]
YES

// next record COc1cc2sc(C(=O)CCC(=O)O)cc2c(F)c1OCCOc1c(OC)cc2sc(C(=O)CCC(=O)O)cc2c1F [Example 65]
YES

From: patent US10793557B2
